Source listed as paper PMC4552634.

Hi there, I'd appreciate the recorded % Inhibition for every entry that follows.
Test system: P. falciparum stage V gametocytes
Parameters: BacTiter-Glo ATP luminescence viability of purified stage V gametocytes in 384-well plates, per cent inhibition versus DMSO
condition info: 48 h, 5 µM; inhibitor
Screen size: about 13,000 compounds; about 3,200 (25%) showed an effect of 50% or more. This is one part of the list.
# output: bare number, implied unit %

GET /values?item= O=C(CCC1CCCC1)N(Cc1ccc(-c2ccc(CNCCc3ccccc3)cc2)cc1)C1CCCNC1 (stereo not shown) [TCMDC-141444] &system= P. falciparum stage V gametocytes returns % Inhibition: 116.1

GET /values?item= CCN(CC)S(=O)(=O)c1ccc(C=CC(=O)Nc2cc(Cl)ccc2N2CCOCC2)cc1 [TCMDC-125117] &system= P. falciparum stage V gametocytes returns % Inhibition: 28.22

GET /values?item= Cc1c(Cl)cccc1S(=O)(=O)Nc1ccc(CCN2CCC(N)CC2)cc1 [TCMDC-134083] &system= P. falciparum stage V gametocytes returns % Inhibition: 99.61

GET /values?item= COc1ccc(NC(=O)N2CCCN(CCCCCNC(=O)/C=C/c3ccc(C(F)(F)F)cc3)CC2)cc1Cl [TCMDC-136109] &system= P. falciparum stage V gametocytes returns % Inhibition: -28.75
